subjectOfTest: human butyrylcholinesterase (hBChE) (Homo sapiens)
Construct: Human plasma BChE (EC 3.1.1.8)
Sequence (P06276 29-602): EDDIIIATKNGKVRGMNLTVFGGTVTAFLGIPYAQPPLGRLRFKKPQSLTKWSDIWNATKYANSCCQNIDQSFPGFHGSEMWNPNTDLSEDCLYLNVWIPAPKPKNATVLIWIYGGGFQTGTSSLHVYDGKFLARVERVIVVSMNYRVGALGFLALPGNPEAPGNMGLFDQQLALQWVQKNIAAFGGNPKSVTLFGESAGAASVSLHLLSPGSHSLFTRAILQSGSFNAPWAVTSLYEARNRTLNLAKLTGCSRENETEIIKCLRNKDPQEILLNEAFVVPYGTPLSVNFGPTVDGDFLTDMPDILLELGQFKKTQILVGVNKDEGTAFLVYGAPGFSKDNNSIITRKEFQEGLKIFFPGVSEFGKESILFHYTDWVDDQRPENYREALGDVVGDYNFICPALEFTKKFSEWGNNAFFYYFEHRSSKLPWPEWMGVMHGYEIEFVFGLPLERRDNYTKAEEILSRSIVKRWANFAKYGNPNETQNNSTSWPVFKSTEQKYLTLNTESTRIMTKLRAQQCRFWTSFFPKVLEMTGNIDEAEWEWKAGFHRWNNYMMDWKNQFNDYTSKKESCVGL
measurementProtocol: biochemical
conditions: BChE from human plasma; mean of three independent measurements ± SEM
endpointLabel: IC50 (µM)

molecule | assayValue
COc1cc2oc(-c3ccc(NCCNc4c5c(nc6cc(Cl)ccc46)CCCC5)cc3)cc(=O)c2c(OC)c1OC | 1.21
COc1cc2oc(-c3ccc(NCCCCCCNc4c5c(nc6cc(Cl)ccc46)CCCC5)cc3)cc(=O)c2c(OC)c1OC | 6.46
COc1cc2oc(-c3ccc(NCCCCCNc4c5c(nc6cc(Cl)ccc46)CCCC5)cc3)cc(=O)c2c(OC)c1OC | 0.934
COc1cc2oc(-c3ccc(NCCCCNc4c5c(nc6cc(Cl)ccc46)CCCC5)cc3)cc(=O)c2c(OC)c1OC | 8.69

###

subjectOfTest: human acetylcholinesterase (hAChE) (Homo sapiens)
Construct: Human erythrocyte hemolyzate, prepared from blood samples, was applied as a source of AChE (EC 3.1.1.7)
Sequence (P22303 32-617 isoform P22303-2 limits assumed): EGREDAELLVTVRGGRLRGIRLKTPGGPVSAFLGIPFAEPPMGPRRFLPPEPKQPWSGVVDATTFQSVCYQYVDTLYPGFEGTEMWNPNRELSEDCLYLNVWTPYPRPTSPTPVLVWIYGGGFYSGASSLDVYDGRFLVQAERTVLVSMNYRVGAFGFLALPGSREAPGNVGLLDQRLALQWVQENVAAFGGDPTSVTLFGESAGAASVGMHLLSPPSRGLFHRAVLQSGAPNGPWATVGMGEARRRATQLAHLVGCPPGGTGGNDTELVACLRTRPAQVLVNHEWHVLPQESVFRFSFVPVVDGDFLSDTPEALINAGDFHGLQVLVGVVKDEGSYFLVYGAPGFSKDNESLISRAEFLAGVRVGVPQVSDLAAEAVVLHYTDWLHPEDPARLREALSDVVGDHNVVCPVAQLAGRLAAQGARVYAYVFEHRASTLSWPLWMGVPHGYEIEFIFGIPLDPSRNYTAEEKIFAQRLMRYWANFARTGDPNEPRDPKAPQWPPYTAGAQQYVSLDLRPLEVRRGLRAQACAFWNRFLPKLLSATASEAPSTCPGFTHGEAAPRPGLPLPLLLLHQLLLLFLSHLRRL
measurementProtocol: biochemical
conditions: AChE from human erythrocytes; mean of three independent measurements ± SEM
pIC50: −log10 of the molar value.

molecule | pIC50
COc1cc2oc(-c3ccc(NCCCCCNc4c5c(nc6cc(Cl)ccc46)CCCC5)cc3)cc(=O)c2c(OC)c1OC | 7.57
COc1cc2oc(-c3ccc(NCCCNc4c5c(nc6cc(Cl)ccc46)CCCC5)cc3)cc(=O)c2c(OC)c1OC | 8.72
COc1cc2oc(-c3ccc(NCCCCCCNc4c5c(nc6cc(Cl)ccc46)CCCC5)cc3)cc(=O)c2c(OC)c1OC | 7.51
COc1cc2oc(-c3ccc(NCCNc4c5c(nc6cc(Cl)ccc46)CCCC5)cc3)cc(=O)c2c(OC)c1OC | 8.79
COc1cc2oc(-c3ccc(NCCCCNc4c5c(nc6cc(Cl)ccc46)CCCC5)cc3)cc(=O)c2c(OC)c1OC | 8.29
COc1cc2oc(-c3ccc(NCCCCCCCCNc4c5c(nc6cc(Cl)ccc46)CCCC5)cc3)cc(=O)c2c(OC)c1OC | 7.65
COc1cc2oc(-c3ccc(NCCCCCCCNc4c5c(nc6cc(Cl)ccc46)CCCC5)cc3)cc(=O)c2c(OC)c1OC | 7.62

###

Tested on: HepG2 cells
measurementProtocol: Hepatotoxicity on HepG2 cells, MTT assay
Type: cell-based
conditions: Homo sapiens, HepG2; MTT, 24 h incubation; mean ± SEM of three independent experiments
pIC50: −log10 of the molar value.
endpointLabel: pIC50

compound | resultOperator | assayValue
COc1cc2oc(-c3ccc(NCCCNc4c5c(nc6cc(Cl)ccc46)CCCC5)cc3)cc(=O)c2c(OC)c1OC | = | 5.24
COc1cc2oc(-c3ccc(NCCCCCCCCNc4c5c(nc6cc(Cl)ccc46)CCCC5)cc3)cc(=O)c2c(OC)c1OC | < | 4.80
COc1cc2oc(-c3ccc(NCCCCCCCNc4c5c(nc6cc(Cl)ccc46)CCCC5)cc3)cc(=O)c2c(OC)c1OC | < | 4.49
COc1cc2oc(-c3ccc(NCCCCNc4c5c(nc6cc(Cl)ccc46)CCCC5)cc3)cc(=O)c2c(OC)c1OC | = | 5.48
Nc1c2c(nc3cc(Cl)ccc13)CCCC2 [Compound 6-Cl-THA, 6-Chlorotacrine, reference compound] | = | 5.15
COc1cc2oc(-c3ccc(NCCCCCNc4c5c(nc6cc(Cl)ccc46)CCCC5)cc3)cc(=O)c2c(OC)c1OC | = | 5.41
COc1cc2oc(-c3ccc(NCCCCCCNc4c5c(nc6cc(Cl)ccc46)CCCC5)cc3)cc(=O)c2c(OC)c1OC | = | 5.11
COc1cc2oc(-c3ccc(NCCNc4c5c(nc6cc(Cl)ccc46)CCCC5)cc3)cc(=O)c2c(OC)c1OC | = | 5.47

###

measurementProtocol: DPPH antioxidant assay
conditions: mean of at least three experiments; 30 min, methanol
pEC50: −log10 of the molar value.

compound | pEC50
Nc1c2c(nc3cc(Cl)ccc13)CCCC2 [Compound 6-Cl-THA, 6-Chlorotacrine, reference compound] | < 4.00
COc1cc2oc(-c3ccc(NCCCNc4c5c(nc6cc(Cl)ccc46)CCCC5)cc3)cc(=O)c2c(OC)c1OC [Compound K1384] | < 3.30
Cc1c(C)c2c(c(C)c1O)CCC(C)(C(=O)O)O2 (stereo not drawn) [trolox, Trolox, reference compound] | 4.79
COc1cc2oc(-c3ccc(NCCCCNc4c5c(nc6cc(Cl)ccc46)CCCC5)cc3)cc(=O)c2c(OC)c1OC [Compound K1385] | < 3.30
COc1cc2oc(-c3ccc(NCCCCCNc4c5c(nc6cc(Cl)ccc46)CCCC5)cc3)cc(=O)c2c(OC)c1OC [Compound K1386] | < 3.30
COc1cc2oc(-c3ccc(NCCCCCCCNc4c5c(nc6cc(Cl)ccc46)CCCC5)cc3)cc(=O)c2c(OC)c1OC [Compound K1388] | < 3.30
COc1cc2oc(-c3ccc(NCCCCCCNc4c5c(nc6cc(Cl)ccc46)CCCC5)cc3)cc(=O)c2c(OC)c1OC [Compound K1387] | < 3.30
COc1cc2oc(-c3ccc(NCCNc4c5c(nc6cc(Cl)ccc46)CCCC5)cc3)cc(=O)c2c(OC)c1OC [Compound K1383] | < 3.30
COc1cc2oc(-c3ccc(NCCCCCCCCNc4c5c(nc6cc(Cl)ccc46)CCCC5)cc3)cc(=O)c2c(OC)c1OC [Compound K1389] | < 3.30

###

measurementProtocol: PAMPA-BBB permeation assay
Format: in vitro ADME
conditions: PAMPA-BBB, PBS pH 7.4, 100 μM donor; mean ± SD of three independent experiments; read-out: Pe

compound | u | Papp at 100 μM
COc1cc2oc(-c3ccc(NCCCCCCCCNc4c5c(nc6cc(Cl)ccc46)CCCC5)cc3)cc(=O)c2c(OC)c1OC [Compound K1389] | ×10⁻⁶ cm/s | 8.1
COc1cc2oc(-c3ccc(NCCCCCCCNc4c5c(nc6cc(Cl)ccc46)CCCC5)cc3)cc(=O)c2c(OC)c1OC [Compound K1388] | ×10⁻⁶ cm/s | 4.92
COc1cc2oc(-c3ccc(NCCCCNc4c5c(nc6cc(Cl)ccc46)CCCC5)cc3)cc(=O)c2c(OC)c1OC [Compound K1385] | ×10⁻⁶ cm/s | 2.6
COc1cc2oc(-c3ccc(NCCCNc4c5c(nc6cc(Cl)ccc46)CCCC5)cc3)cc(=O)c2c(OC)c1OC [Compound K1384] | ×10⁻⁶ cm/s | 5.01
COc1cc2oc(-c3ccc(NCCNc4c5c(nc6cc(Cl)ccc46)CCCC5)cc3)cc(=O)c2c(OC)c1OC [Compound K1383] | ×10⁻⁶ cm/s | 2.88
COc1cc2oc(-c3ccc(NCCCCCNc4c5c(nc6cc(Cl)ccc46)CCCC5)cc3)cc(=O)c2c(OC)c1OC [Compound K1386] | ×10⁻⁶ cm/s | 3.93
Nc1c2c(nc3cc(Cl)ccc13)CCCC2 [Compound 6-Cl-THA, 6-Chlorotacrine, reference compound] | ×10⁻⁶ cm/s | 5
COc1cc2oc(-c3ccc(NCCCCCCNc4c5c(nc6cc(Cl)ccc46)CCCC5)cc3)cc(=O)c2c(OC)c1OC [Compound K1387] | ×10⁻⁶ cm/s | 3.31

###

subjectOfTest: hAChE (Homo sapiens)
Construct: Human erythrocyte hemolyzate, prepared from blood samples, was applied as a source of AChE (EC 3.1.1.7)
Sequence (P22303 32-617 isoform P22303-2 limits assumed): as above
measurementProtocol: Kinetic study of AChE inhibition (Lineweaver-Burk, nonlinear regression)
conditions: substrate ATCh 0.156–1.250 mM, Ki = Ki′
pKi: −log10 of the molar value.
endpointLabel: pKi

molecule | endpointLabel | assayValue
COc1cc2oc(-c3ccc(NCCNc4c5c(nc6cc(Cl)ccc46)CCCC5)cc3)cc(=O)c2c(OC)c1OC | pKi | 8.56
